# assay.notes: Cytotoxicity against human HepG2.2.15 cells assessed as reduction in cell viability incubated for 3 days followed by replacement of fresh medium containing compound and measured after 3 days by cell titer glo-based luminescence assay
# Set-up: species or system HepG2 2.2.15
observation.type: CC50 at 72 h (µM)
Report only the number, with the unit µM understood.

Record excerpt, results attached:
COC1COCCN(S(=O)(=O)c2cc(C(=O)Nc3ccc(F)c(Cl)c3)ccc2F)C1 (stereo not given)    8.7
CC1(O)CCCN(S(=O)(=O)c2cc(C(=O)Nc3ccc(F)c(Cl)c3)ccc2F)CC1 (stereo not given)    11
O=C(Nc1ccc(F)c(Cl)c1)c1ccc(F)c(S(=O)(=O)N2CCOC[C@H](O)C2)c1    19
O=C(Nc1ccc(F)c(Cl)c1)c1ccc(F)c(S(=O)(=O)N2CCCCCCC2O)c1 (stereo not given)    7

Please look at the following compound next.
Which measured CC50 at 72 h value corresponds to O=C(Nc1ccc(F)c(Cl)c1)c1ccc(F)c(S(=O)(=O)N2CCCCCC(O)C2)c1 (stereo not given) ?
11

----------
Listed molecules paired with reported clearance
# assay.notes: Clearance in Mongrel dog at 3 mg/kg, po or 1 mg/kg, iv
# Format: ADME, organism-based, Canis lupus familiaris
# measurement.context: in vivo
Give the value; after it, write the unit.

Which measured clearance value corresponds to O=C(Nc1ccc(F)c(Cl)c1)c1ccc(F)c(S(=O)(=O)N2CCOC[C@H](O)C2)c1 ?
5.4 mL/min/kg

Which measured clearance value corresponds to O=C(Nc1ccc(F)c(Cl)c1)c1ccc(F)c(S(=O)(=O)N2C[C@H](O)CC[C@H](O)C2)c1 ?
6.4 mL/min/kg

----------
# assay.notes: Volume of distribution at steady state in Mongrel dog at 3 mg/kg, po or 1 mg/kg, iv
# Type: ADME, organism-based, Canis lupus familiaris
# measurement.context: in vivo, read-out: Vdss
observation.type: Vd
Give the value; after it, write the unit.

O=C(Nc1ccc(F)c(Cl)c1)c1ccc(F)c(S(=O)(=O)N2C[C@H](O)CC[C@H](O)C2)c1    1.3 L/kg

Please look at the following compound next.
Which measured Vd value corresponds to O=C(Nc1ccc(F)c(Cl)c1)c1ccc(F)c(S(=O)(=O)N2CCOC[C@H](O)C2)c1 ?
1.3 L/kg

----------
# assay.notes: Half life in Sprague-Dawley rat at 10 mg/kg, po or 2 mg/kg, iv
# Type: ADME, organism-based
# measurement.context: in vivo
observation.type: half-life (min)
Report only the number, with the unit min understood.

Which measured half-life value corresponds to O=C(Nc1ccc(F)c(Cl)c1)c1ccc(F)c(S(=O)(=O)N2CCOC[C@H](O)C2)c1 ?
36

----------
# assay.notes: Clearance in Sprague-Dawley rat at 10 mg/kg, po or 2 mg/kg, iv
# Type: ADME, organism-based
# measurement.context: in vivo
observation.type: clearance (mL/min/kg)
Report only the number, with the unit mL/min/kg understood.

Which measured clearance value corresponds to O=C(Nc1ccc(F)c(Cl)c1)c1ccc(F)c(S(=O)(=O)N2CCOC[C@H](O)C2)c1 ?
88

----------
Listed compounds paired with reported bioavailability
# assay.notes: Oral bioavailability in CD1 mouse at 10 mg/kg
# Type: ADME, organism-based
# measurement.context: in vivo
Report only the number, with the unit % understood.

O=C(Nc1ccc(F)c(Cl)c1)c1ccc(F)c(S(=O)(=O)N2C[C@H](O)CC[C@H](O)C2)c1    12

Please look at the following compound next.
Which measured bioavailability value corresponds to O=C(Nc1ccc(F)c(Cl)c1)c1ccc(F)c(S(=O)(=O)N2CCOC[C@H](O)C2)c1 ?
78

----------
# assay.notes: Ratio of drug concentration in liver to plasma of CD1 mouse
# Format: ADME
Listed compounds paired with reported Kp
Give the figure only, with no unit attached.

Which measured Kp value corresponds to O=C(Nc1ccc(F)c(Cl)c1)c1ccc(F)c(S(=O)(=O)N2CCOC[C@H](O)C2)c1 ?
15

Which measured Kp value corresponds to O=C(Nc1cc(F)c(F)c(F)c1)c1ccc(F)c(S(=O)(=O)N2CCC(O)CC2)c1 ?
6

Which measured Kp value corresponds to O=C(Nc1ccc(F)c(Cl)c1)c1ccc(F)c(S(=O)(=O)N2C[C@H](O)CC[C@H](O)C2)c1 ?
76

----------
# assay.notes: Cytotoxicity against human HepG2.2.15 cells assessed as reduction in cell viability incubated for 3 days followed by replacement of fresh medium containing compound and measured after 3 days by cell titer glo-based luminescence assay
# Set-up: species or system HepG2 2.2.15
Listed compounds paired with reported log10 CC50 at 72 h
Form field - Quantity: CC50 at 72 h; Unit: µM; Scale: log10

Record excerpt, results attached:
O=C(Nc1ccc(F)c(Cl)c1)c1ccc(F)c(S(=O)(=O)N2CCCCC(CO)C2)c1 (centres undefined)    0.49
O=C(Nc1ccc(F)c(Cl)c1)c1ccc(F)c(S(=O)(=O)N2CCOCC(F)C2)c1 (centres undefined)    1.18
CC1(O)CCCCN(S(=O)(=O)c2cc(C(=O)Nc3ccc(F)c(Cl)c3)ccc2F)C1 (centres undefined)    1.00
O=C(Nc1ccc(F)c(Cl)c1)c1ccc(F)c(S(=O)(=O)N2CCCCC(F)(F)C2)c1    1.04
O=C(Nc1ccc(F)c(Cl)c1)c1ccc(F)c(S(=O)(=O)N2CCSCC(O)C2)c1 (centres undefined)    1.28

Which measured log10 CC50 at 72 h value corresponds to O=C(Nc1ccc(F)c(Cl)c1)c1ccc(F)c(S(=O)(=O)N2CCCC(O)CC2)c1 (centres undefined) ?
1.46

Which measured log10 CC50 at 72 h value corresponds to CC(O)C1CCCCN(S(=O)(=O)c2cc(C(=O)Nc3ccc(F)c(Cl)c3)ccc2F)C1 (centres undefined) ?
0.41

----------
# assay.notes: AUC in CD1 mouse liver at 5 mg/kg
# Type: ADME, organism-based
# measurement.context: in vivo
observation.type: AUC
Give the value; after it, write the unit.

Which measured AUC value corresponds to O=C(Nc1ccc(F)c(Cl)c1)c1ccc(F)c(S(=O)(=O)N2C[C@H](O)CC[C@H](O)C2)c1 ?
55.4 µM·h

----------
# assay.notes: Half life in human hepatocytes
# Type: ADME, cell-based, Hepatocyte
Assign class by half-life: not lower than 0.8 h means fulfilled; lower than 0.8 h means not fulfilled.

O=C(Nc1ccc(F)c(Cl)c1)c1ccc(F)c(S(=O)(=O)N2C[C@H](O)CC[C@H](O)C2)c1    fulfilled
O=C(Nc1ccc(F)c(Cl)c1)c1ccc(F)c(S(=O)(=O)N2CCCCCC(O)C2)c1 (stereo unspecified)    not fulfilled
O=C(Nc1ccc(F)c(Cl)c1)c1ccc(F)c(S(=O)(=O)N2CCCCC(O)CC2)c1 (stereo unspecified)    not fulfilled
O=C(Nc1ccc(F)c(Cl)c1)c1ccc(F)c(S(=O)(=O)N2CCOCC(O)C2)c1 (racemic)    fulfilled

Please find the next compound below.
half-life >= 0.8 h for CC1(O)COCCN(S(=O)(=O)c2cc(C(=O)Nc3ccc(F)c(Cl)c3)ccc2F)C1 (stereo unspecified) ?
fulfilled

----------
# assay.notes: Lipophilicity, log P of the compound
# Type: physicochemical
# measurement.context: octanol/water; read-out: logP
observation.type: logP
Give the figure only, with no unit attached.

O=C(Nc1ccc(F)c(Cl)c1)c1ccc(F)c(S(=O)(=O)N2C[C@H](O)CC[C@H](O)C2)c1    2.9

Please look at the following compound next.
Which measured logP value corresponds to O=C(Nc1ccc(F)c(Cl)c1)c1ccc(F)c(S(=O)(=O)N2CCOC[C@H](O)C2)c1 ?
2.6

----------
# assay.notes: Volume of distribution at steady state in CD1 mouse at 10 mg/kg, po or 2 mg/kg, iv
# Format: ADME, organism-based
# measurement.context: in vivo, read-out: Vdss
observation.type: Vd

O=C(Nc1ccc(F)c(Cl)c1)c1ccc(F)c(S(=O)(=O)N2C[C@H](O)CC[C@H](O)C2)c1    4.1 L/kg

Please look at the following compound next.
Which measured Vd value corresponds to O=C(Nc1ccc(F)c(Cl)c1)c1ccc(F)c(S(=O)(=O)N2CCOC[C@H](O)C2)c1 ?
4.1 L/kg

----------
# assay.notes: Oral bioavailability in Mongrel dog at 3 mg/kg
# Format: ADME, organism-based, Canis lupus familiaris
# measurement.context: in vivo
observation.type: bioavailability (%)
Report only the number, with the unit % understood.

O=C(Nc1ccc(F)c(Cl)c1)c1ccc(F)c(S(=O)(=O)N2C[C@H](O)CC[C@H](O)C2)c1    22

Which measured bioavailability value corresponds to O=C(Nc1ccc(F)c(Cl)c1)c1ccc(F)c(S(=O)(=O)N2CCOC[C@H](O)C2)c1 ?
53

----------
Listed compounds paired with reported CC50 at 72 h
# assay.notes: Cytotoxicity against human HepG2.2.15 cells assessed as reduction in cell viability incubated for 3 days followed by replacement of fresh medium containing compound and measured after 3 days by cell titer glo-based luminescence assay
# Design: species or system HepG2 2.2.15
Report only the number, with the unit µM understood.

Record excerpt, results attached:
O=C(Nc1ccc(F)c(Cl)c1)c1ccc(F)c(S(=O)(=O)N2CCCCC(O)C2)c1 (stereo not given)    15
O=C(Nc1ccc(F)c(Cl)c1)c1ccc(F)c(S(=O)(=O)N2CCOC[C@@H](O)C2)c1    14
O=C(Nc1ccc(F)c(Cl)c1)c1ccc(F)c(S(=O)(=O)N2CCCCC(O)CC2)c1 (stereo not given)    24

Which measured CC50 at 72 h value corresponds to CN1CCN(S(=O)(=O)c2cc(C(=O)Nc3ccc(F)c(Cl)c3)ccc2F)CC(O)C1 (stereo not given) ?
31
